Data origin, for the record: ChEMBL document CHEMBL1154150

- Tested on: Mus musculus
- Test Summary: Neurotoxicity in CF1 mouse at 300 mg/kg, ip after 0.5 hrs by rotarod test
- Assay type: toxicity, organism-based
- Set-up: dose 300 mg/kg, route intraperitoneal
- Measurement Context: in vivo
Experimental Readout: Activity

- CCCOc1c(C(=O)N/N=C(\c2ccccc2)c2ccc(Br)s2)sc(C(=O)N/N=C(\c2ccccc2)c2ccc(Br)s2)c1OCCC: Toxic
- CCCOc1c(C(=O)N/N=C/c2ccc3cc(OC)ccc3c2)sc(C(=O)N/N=C/c2ccc3cc(OC)ccc3c2)c1OCCC: Non-toxic
- CCCOc1c(C(=O)NN=C2CCCCCC2)sc(C(=O)NN=C2CCCCCC2)c1OCCC: Non-toxic
- CCCOc1c(C(=O)N/N=C\c2cccs2)sc(C(=O)N/N=C/c2cccs2)c1OCCC: Toxic
